Tested on: MDR1
measurement protocol: Bidirectional transport in MDCK cell monolayers with selective transporter inhibitors or substrates
Type: in vitro ADME, canine
applied conditions: dog, with quinidine 0.1 mM (100 μM), + Quinidine 0.1 mM (MDR1), read-out: ER
measurement type: efflux ratio at 120 min, 2 μM
A bare number is all that is needed in reply.

Per the record, COc1ccc2c3c([nH]c2c1)C(C)=NCC3 [Harmaline] has efflux ratio at 120 min, 2 μM of 1.12

---

measurement protocol: in vitro
applied conditions: dog, MDCK, PappAB, initial concentration 5 μM
measurement type: Papp A→B

COc1ccc2c3c([nH]c2c1)C(C)=NCC3 21.2 ×10⁻⁶ cm/s

Per the record, COc1ccc2c(c1)[nH]c1c(C)nccc12 has Papp A→B of 7.11 ×10⁻⁶ cm/s

---

measurement protocol: Cytotoxicity CCK-8 assay in Caco-2 cells
Type: cell-based, human
applied conditions: human, Caco-2 cells; Caco-2, up to 25 μM, 12 h incubation; read-out: Cell viability
measurement type: viability at 12 h

Per the record, COc1ccc2c3c([nH]c2c1)C(C)=NCC3 [Harmaline] has viability at 12 h of > 90%

---

measurement protocol: Pharmacokinetics in rats after intravenous and intragastric administration
applied conditions: both, Sprague-Dawley, rat, in vivo, po, 40 mg/kg, Cmax, rats, harmine p.o. 40.0 mg/kg co-administered with probenecid 20.0 mg/kg
measurement type: Cmax

Per the record, COc1ccc2c(c1)[nH]c1c(C)nccc12 has Cmax of 98.9 ng/mL

---

Recorded microsomal CLint at 2 μM for the following compounds
measurement protocol: Metabolic stability in human liver microsomes
applied conditions: human, liver microsomes
Kindly provide the numeric value in µL/min/mg only, without the unit symbol.

COc1ccc2c(c1)[nH]c1c(C)nccc12 14

Please find the next compound below.
Per the record, COc1ccc2c3c([nH]c2c1)C(C)=NCC3 has microsomal CLint at 2 μM of 9.4

---

System: MRP2
measurement protocol: Bidirectional transport in MDCK-MRP2 cell monolayers with MRP2 inhibitors
Format: in vitro ADME, canine
applied conditions: dog, with probenecid 0.2 mM (200 μM); MDCK-MRP2, 2 μM, + Probenecid 0.2 mM (MRP2)
Procedure: Caco-2, MDCK and MDCK-MRP2 cells were donated by Prof. Yan Xie and Yueming Ma from Shanghai University of Traditional Chinese Medicine. […] The apparent permeability coefficients (Papp) and ER were calculated as Equations (2) and (3): […] where dQ/dt is the steady-state flux, A is the membrane surface area, and C0 is the initial drug concentration in the donor compartment. PappBA is the Papp-value measured in BL to AP direction and PappAB is the Papp-value measured in AP to BL direction. […]
measurement type: Papp B→A at 120 min, 2 μM (×10⁻⁶ cm/s)
Kindly provide the numeric value in ×10⁻⁶ cm/s only, without the unit symbol.

COc1ccc2c3c([nH]c2c1)C(C)=NCC3 41.9

Please find the next compound below.
Per the record, COc1ccc2c(c1)[nH]c1c(C)nccc12 has Papp B→A at 120 min, 2 μM of 8.62

---

System: BCRP
measurement protocol: Bidirectional transport in MDCK cell monolayers with selective transporter inhibitors or substrates
Assay type: in vitro ADME, canine
applied conditions: dog, with apigenin 0.025 mM (25 μM), + Apigenin 0.025 mM (BCRP), read-out: ER
measurement type: efflux ratio at 120 min, 2 μM
A bare number is all that is needed in reply.

Per the record, COc1ccc2c3c([nH]c2c1)C(C)=NCC3 has efflux ratio at 120 min, 2 μM of 1.16
